# Activity per entry
target: von Hippel-Lindau disease tumor suppressor/Androgen receptor (Homo sapiens, UniProt P10275+P40337); experiment: Protac activity at VHL/AR in AR-positive human LNCaP cells assessed as induction of androgen receptor degradation at 0.01 uM incubated for 6 hrs by Western blot analysis (reference value: 0%); type: cell-based
Sequence (P10275 whole entry, looked up): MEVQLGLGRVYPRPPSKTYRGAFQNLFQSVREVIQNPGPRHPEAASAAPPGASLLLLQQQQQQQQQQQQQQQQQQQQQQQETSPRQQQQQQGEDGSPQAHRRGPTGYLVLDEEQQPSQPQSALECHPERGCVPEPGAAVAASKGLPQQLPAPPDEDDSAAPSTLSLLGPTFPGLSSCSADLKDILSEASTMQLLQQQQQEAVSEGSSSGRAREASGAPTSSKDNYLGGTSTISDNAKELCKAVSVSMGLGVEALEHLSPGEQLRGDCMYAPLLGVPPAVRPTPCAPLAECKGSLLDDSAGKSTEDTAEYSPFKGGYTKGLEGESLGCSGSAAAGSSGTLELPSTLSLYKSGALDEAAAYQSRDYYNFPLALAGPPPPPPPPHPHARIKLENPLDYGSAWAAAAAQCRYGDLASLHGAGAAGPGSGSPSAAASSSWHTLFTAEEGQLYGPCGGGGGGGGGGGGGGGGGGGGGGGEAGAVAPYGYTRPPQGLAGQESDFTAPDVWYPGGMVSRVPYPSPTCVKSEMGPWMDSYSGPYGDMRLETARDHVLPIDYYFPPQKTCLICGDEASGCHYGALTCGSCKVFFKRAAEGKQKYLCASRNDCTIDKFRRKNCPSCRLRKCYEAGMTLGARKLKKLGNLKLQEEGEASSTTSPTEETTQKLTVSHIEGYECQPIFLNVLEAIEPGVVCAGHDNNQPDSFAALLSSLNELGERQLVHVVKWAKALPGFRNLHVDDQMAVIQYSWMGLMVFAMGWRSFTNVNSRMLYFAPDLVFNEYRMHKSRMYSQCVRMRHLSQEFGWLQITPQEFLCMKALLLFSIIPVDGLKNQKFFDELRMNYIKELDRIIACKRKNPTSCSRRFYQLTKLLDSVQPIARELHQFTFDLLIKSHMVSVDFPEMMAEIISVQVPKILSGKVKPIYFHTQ
Sequence (P40337 whole entry, looked up): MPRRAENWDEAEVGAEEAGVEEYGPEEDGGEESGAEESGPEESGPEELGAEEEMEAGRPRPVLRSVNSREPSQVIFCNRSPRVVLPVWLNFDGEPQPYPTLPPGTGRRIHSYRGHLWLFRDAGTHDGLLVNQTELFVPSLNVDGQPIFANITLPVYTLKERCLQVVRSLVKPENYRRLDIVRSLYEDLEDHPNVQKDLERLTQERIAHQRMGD
recorded_endpoint: Activity (%)

line_notation	numeric_result
Cc1ncsc1-c1ccc([C@H](C)NC(=O)[C@@H]2C[C@@H](O)CN2C(=O)[C@@H](NC(=O)CCCCN2CCN(c3ccc(C#Cc4ccc(N5C(=S)N(c6ccc(C#N)c(C(F)(F)F)c6)C(=O)C5(C)C)cc4)cn3)CC2)C(C)(C)C)cc1	28
Cc1ncsc1-c1ccc(CNC(=O)[C@@H]2C[C@@H](O)CN2C(=O)[C@@H](NC(=O)CCCCCCCCCNC(=O)c2ccc(N3C(=S)N(c4ccc(C#N)c(C(F)(F)F)c4)C(=O)C3(C)C)cc2F)C(C)(C)C)cc1	10
Cc1ncsc1-c1ccc(CNC(=O)[C@@H]2C[C@@H](O)CN2C(=O)[C@@H](NC(=O)CCCCCCCNC(=O)c2ccc(N3C(=S)N(c4ccc(C#N)c(C(F)(F)F)c4)C(=O)C3(C)C)cc2F)C(C)(C)C)cc1	8
Cc1cc([C@H](C(=O)N2C[C@H](O)C[C@H]2C(=O)N[C@@H](CC(=O)N2CCN(c3ccc(C#Cc4ccc(N5C(=S)N(c6ccc(C#N)c(C(F)(F)F)c6)C(=O)C5(C)C)cc4)cn3)CC2)c2ccc(-c3scnc3C)cc2)C(C)C)on1	22
Cc1ncsc1-c1ccc(CNC(=O)[C@@H]2C[C@@H](O)CN2C(=O)[C@@H](NC(=O)CCCCCCCCNC(=O)c2ccc(N3C(=S)N(c4ccc(C#N)c(C(F)(F)F)c4)C(=O)C3(C)C)cc2F)C(C)(C)C)cc1	15
Cc1cc([C@H](C(=O)N2C[C@H](O)C[C@H]2C(=O)N[C@@H](CC(=O)NCCCCCCCCCNC(=O)c2ccc(N3C(=S)N(c4ccc(C#N)c(C(F)(F)F)c4)C(=O)C3(C)C)cc2F)c2ccc(-c3sncc3C)cc2)C(C)C)on1	11
